Test system: Myc
Experiment: Myc inhibition assay: Myc expression per cell by anti-Myc immunofluorescence, high-content imaging
Format: cell-based, human (patient-derived medulloblastoma xenograft cells)
Conditions: Table 1; medulloblastoma PDX cells, 4 h; read-out: IC50 (Myc inhibition)
A collection of compounds and their measured IC50
MEASURED_QUANTITY: IC50

> print(dat)
                         chemical.structure  measured.quantity        result
1  c1ccc(Cn2cc(Nc3nccc(-c4ccc5[nH]cnc5c4)n3)cn2)cc1               IC50   0.2 to 1 µM
2  CC(=O)c1cccc(Nc2nccc(-c3ccc4[nH]cnc4c3)n2)c1               IC50      < 0.2 µM
3     Oc1cc(-c2ccnc(Nc3cc(F)cc(F)c3)n2)ccn1               IC50    1 to 10 µM
4          COc1cc(-c2ccnc(Nc3ncccn3)n2)ccn1               IC50  10 to 100 µM
5       COc1cncc(-c2ccnc(Nc3cccc(F)c3)n2)c1               IC50   0.2 to 1 µM
6  CN(C)S(=O)(=O)c1cccc(Nc2nccc(-c3ccc4[nH]cnc4c3)n2)c1               IC50      < 0.2 µM
7     CN(c1cccc(F)c1)c1nccc(-c2ccnc(O)c2)n1               IC50  10 to 100 µM
8    c1ccc(Nc2nccc(-c3ccc4[nH]cnc4c3)n2)cc1               IC50    1 to 10 µM
9        Oc1ccc(Nc2ccnc(Nc3cccc(F)c3)n2)cn1               IC50  10 to 100 µM

----------
System: Myc
Assay: Myc inhibition assay: Myc expression per cell by anti-Myc immunofluorescence, high-content imaging
Assay type: cell-based, human (patient-derived medulloblastoma xenograft cells)
Conditions: Table 1; medulloblastoma PDX cells, 4 h; read-out: IC50 (Myc inhibition)
pIC50: −log10 of the molar value.
A collection of compounds and their measured pIC50
MEASURED_QUANTITY: pIC50

> print(dat)
                                   compound  measured.quantity        result
1  Cc1cccc(Nc2nccc(-c3cnc4nc[nH]c4c3)n2)c1 [Compound 136]              pIC50        > 6.70
2  COCCNc1cccc(Nc2nccc(-c3ccc4[nH]cnc4c3)n2)c1 [Compound 47]              pIC50  6.00 to 6.70
3  Fc1cc2[nH]cnc2cc1-c1ccnc(Nc2cccc(C(F)(F)F)c2)n1 [Compound 126]              pIC50  6.00 to 6.70
4  Oc1cccc(Nc2nccc(-c3ccc4[nH]cnc4c3)n2)c1 [Compound 90]              pIC50        > 6.70
5  CN(c1cccc(Nc2nccc(-c3ccc4[nH]cnc4c3)n2)c1)S(=O)(=O)c1ccccc1 [Compound 262]              pIC50  5.00 to 6.00
6  COc1cc(-c2ccnc(Cc3ccccc3)n2)ccn1 [Compound 230]              pIC50  4.00 to 5.00
7  Oc1cc(-c2ccnc(Nc3ccccn3)n2)ccn1 [Compound 186]              pIC50  4.00 to 5.00
8  COc1cccc(-c2cccc(Nc3ccccc3)n2)c1 [Compound 245]              pIC50  4.00 to 5.00
9  FC(F)(F)c1ccc(Nc2nccc(-c3ccc4[nH]cnc4c3)n2)cc1 [Compound 266]              pIC50  5.00 to 6.00
